- study_target: CYP3A4 (Homo sapiens)
- Sequence (P08684 whole entry): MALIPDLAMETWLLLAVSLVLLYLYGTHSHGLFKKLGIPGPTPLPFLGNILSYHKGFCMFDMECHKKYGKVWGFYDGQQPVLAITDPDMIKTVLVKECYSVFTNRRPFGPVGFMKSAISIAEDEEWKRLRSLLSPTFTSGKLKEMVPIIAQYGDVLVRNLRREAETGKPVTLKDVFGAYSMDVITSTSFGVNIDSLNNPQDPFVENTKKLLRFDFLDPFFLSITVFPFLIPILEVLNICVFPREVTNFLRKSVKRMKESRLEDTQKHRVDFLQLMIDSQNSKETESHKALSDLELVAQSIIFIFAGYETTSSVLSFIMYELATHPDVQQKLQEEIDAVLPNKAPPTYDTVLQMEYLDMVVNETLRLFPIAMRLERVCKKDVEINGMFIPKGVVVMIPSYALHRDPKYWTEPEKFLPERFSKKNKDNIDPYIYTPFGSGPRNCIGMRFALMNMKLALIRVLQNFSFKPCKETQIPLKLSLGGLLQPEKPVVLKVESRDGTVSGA
- experimental_conditions: recombinant enzyme
test_readout: half-life (t1/2) of parent compound depletion from phenotyping assay, 3A4

# compound, experimental_value
data = [
    ("COc1cc(N)c(Cl)cc1C(=O)NC1CCN(Cc2ccccc2)CC1 [clebopride]", "3A4 (<5 m), others (>60 m)"),
    ("O=c1[nH]c2ccccc2n1C1CCN(CCCC(c2ccc(F)cc2)c2ccc(F)cc2)CC1 [pimozide]", "3A4 (2.7 m), 2D6 (3.2 m), others (>60 m)"),
    ("COc1ccc(CCN2CCC(Nc3nc4ccccc4n3Cc3ccc(F)cc3)CC2)cc1", "3A4 (1.5 m), 2D6 (4.0 m), others (>60 m)"),
    ("O=C(NC1CCN(CCc2c[nH]c3ccccc23)CC1)c1ccccc1", "2D6 (<5 m), 3A4 (16.0 m), others (>60 m)"),
]

Cited source for all entries: paper PMC3155282
